Biological target: PKC β II (Homo sapiens)
Construct: purchased CALBIOCHEM
Experiment: PKC enzyme assay (BIOTRAK Protein kinase C enzyme assay system, 32P-ATP phosphorylation of peptide […])
Format: biochemical
Settings: Protein Kinase C, Human Recombinant; test substance 1 nM-10 µM; 37°C, 15 minutes; read-out: Inhibition of PKC activity IC50 PKC β II
measurement-kind: IC50 (nM)

# count of solved cases: 4
compound	measurement-kind	result-number
O=C1NC(=O)C(c2c3n(c4ccccc24)C[C@@H](CN2CCCC2)C3)=C1Nc1ccccc1	IC50	8
CN(C)C1CCN(CCCn2cc(C3=C(Nc4ccccc4)C(=O)NC3=O)c3ccccc32)CC1	IC50	15
CN1CCCC(Cn2cc(C3=C(Nc4ccccc4)C(=O)NC3=O)c3ccccc32)C1 (centres unmarked)	IC50	57
Cc1nccn1CCCn1cc(C2=C(Nc3cccc(Cl)c3)C(=O)NC2=O)c2ccccc21	IC50	10

1 = Cc1cccc(NC2=C(c3c[nH]c4ccccc34)C(=O)NC2=O)c1
2 = CN(C)CCCn1cc(C2=C(Nc3cccc(Cl)c3)C(=O)NC2=O)c2ccccc21
## Task // compare: 1 vs 2 , metric IC50, want the smaller Record your answer as the label of the chosen record.
## Result 2

----------
Target: PKC α (Homo sapiens, UniProt P17252)
Construct: purchased CALBIOCHEM
Assay: PKC enzyme assay (BIOTRAK Protein kinase C enzyme assay system, 32P-ATP phosphorylation of peptide […])
Type: biochemical
Settings: Protein Kinase C, Human Recombinant; test substance 1 nM-10 µM; 37°C, 15 minutes; read-out: Inhibition of PKC activity IC50 PKC α
Method: As the reagent for enzyme assay, BIOTRAK Protein kinase C enzyme assay system (hereinafter the system, Amersham), and as the PKC enzyme standard product, Protein Kinase C, Human Recombinant (CALBIOCHEM) were purchased and used in the assay. […] The ratio of the radioactivity of the addition of the test substance to the addition of DMSO was determined, and IC50 was calculated from inhibition at each concentration.
pIC50: −log10 of the molar value.
measurement-kind: pIC50

compound	pIC50
NC(=O)C1CCN(CCCn2cc(C3=C(Nc4ccccc4)C(=O)NC3=O)c3ccccc32)CC1	6.17
NC(=O)N1CCC(Cn2cc(C3=C(Nc4ccccc4)C(=O)NC3=O)c3ccccc32)CC1	5.44

a = O=C1NC(=O)C(c2cn(CCCn3ccnc3)c3ccccc23)=C1Nc1ccc(F)cc1
b = CN1CCC(Cn2cc(C3=C(Nc4ccccc4)C(=O)NC3=O)c3ccccc32)CC1
## Task Form: Entry with minimum pIC50 (choose one): a / b Field: selected label. Fill in the label of the entry you choose.
## Result b
(b: 6.29, a: 6.50)

I = O=C1NC(=O)C(c2cn(CC3CCN(CC(O)CO)CC3)c3ccccc23)=C1Nc1ccccc1 (stereo not shown)
II = CN(C)CCN(C)CCn1cc(C2=C(Nc3ccccc3)C(=O)NC2=O)c2ccccc21
## Task # argmax over pIC50 for candidates I and II The response must carry the label of the picked entry.
## Result I

----------
Biological target: PKC β II (Homo sapiens, UniProt P05771)
Construct: purchased CALBIOCHEM
Sequence (P05771 other isoform, or with tags, fused parts or gaps): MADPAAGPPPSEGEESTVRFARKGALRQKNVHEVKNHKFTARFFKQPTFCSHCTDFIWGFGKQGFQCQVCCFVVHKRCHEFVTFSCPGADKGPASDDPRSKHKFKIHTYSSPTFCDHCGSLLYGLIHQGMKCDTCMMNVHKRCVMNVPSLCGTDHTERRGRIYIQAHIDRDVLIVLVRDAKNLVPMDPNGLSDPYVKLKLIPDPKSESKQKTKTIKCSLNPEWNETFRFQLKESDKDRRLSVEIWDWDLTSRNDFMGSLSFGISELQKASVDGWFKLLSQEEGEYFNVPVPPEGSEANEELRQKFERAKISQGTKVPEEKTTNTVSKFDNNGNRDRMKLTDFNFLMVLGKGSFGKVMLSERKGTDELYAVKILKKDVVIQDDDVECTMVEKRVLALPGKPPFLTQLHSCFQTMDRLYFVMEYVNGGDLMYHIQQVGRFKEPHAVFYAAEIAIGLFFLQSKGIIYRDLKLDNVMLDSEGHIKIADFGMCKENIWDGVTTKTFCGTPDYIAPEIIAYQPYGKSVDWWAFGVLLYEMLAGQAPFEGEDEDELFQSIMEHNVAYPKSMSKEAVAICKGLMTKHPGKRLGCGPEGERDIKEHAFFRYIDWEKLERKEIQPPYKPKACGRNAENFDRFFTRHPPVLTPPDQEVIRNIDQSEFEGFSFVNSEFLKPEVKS
Test: PKC enzyme assay (BIOTRAK Protein kinase C enzyme assay system, 32P-ATP phosphorylation of peptide […])
Format: biochemical
Conditions: IC50 PKC α / IC50 PKC β II
measurement-kind: Ratio α/β

Look over these answered cases.
molecule	Ratio α/β
Cc1c(C2=C(Nc3ccccc3)C(=O)NC2=O)c2ccccc2n1CCCN1CCCCC1	102
CCNCC1Cc2c(C3=C(Nc4ccc(F)cc4)C(=O)NC3=O)c3ccccc3n2C1 (stereo not shown)	75
O=C1NC(=O)C(c2cn(CCCN3CCN(CCO)CC3)c3ccccc23)=C1Nc1ccccc1	57
COc1ccc(NC2=C(c3c4n(c5ccccc35)C[C@@H](CO)C4)C(=O)NC2=O)cc1	50
CN(C)C[C@H]1Cc2c(C3=C(Nc4ccccc4)C(=O)NC3=O)c3ccccc3n2C1	37
Cc1c(C2=C(Nc3ccccc3)C(=O)NC2=O)c2ccccc2n1CCCN1CCCC1	104

1 = CNCC1Cc2c(C3=C(Nc4ccc(F)cc4)C(=O)NC3=O)c3ccccc3n2C1 (stereo not shown)
2 = O=C1NC(=O)C(c2cn(CCCCN3CCC(O)CC3)c3ccccc23)=C1Nc1cccc(Cl)c1
## Task Which entry shows the lesser value of Ratio α/β here, 1 or 2 ? // respond with label for picked entry
## Result 2

A = CCN(C)C[C@H]1Cc2c(C3=C(Nc4ccc(F)cc4)C(=O)NC3=O)c3ccccc3n2C1
B = CCN(C)C[C@@H]1CCc2c(C3=C(Nc4ccccc4)C(=O)NC3=O)c3ccccc3n2C1
## Task API: POST /compare with A and B ; response names the item with higher Ratio α/β. Answer with the label corresponding to your selection.
## Result B

----------
Target: PKC α (Homo sapiens, UniProt P17252)
Construct: purchased CALBIOCHEM
Test: PKC enzyme assay (BIOTRAK Protein kinase C enzyme assay system, 32P-ATP phosphorylation of peptide […])
Assay type: biochemical
Conditions: read-out: Inhibition of PKC activity IC50 PKC α; Protein Kinase C, Human Recombinant; test substance 1 nM-10 µM; 37°C, 15 minutes
pIC50: −log10 of the molar value.
measurement-kind: pIC50

compound	system-name	pIC50
CNCC1Cc2c(C3=C(Nc4ccc(F)cc4)C(=O)NC3=O)c3ccccc3n2C1 (stereo not shown) [Example 4-32]	PKC α (Homo sapiens, UniProt P17252)	6.64
COc1ccc(NC2=C(c3c4n(c5ccccc35)C[C@@H](CO)C4)C(=O)NC2=O)cc1 [Example 4-62]	PKC α (Homo sapiens, UniProt P17252)	6.10

P = O=C1NC(=O)C(c2c3n(c4ccccc24)CC(CN2CCSCC2)C3)=C1Nc1ccccc1 (stereo not shown) [Example 4-28]
Q = O=C1NC(=O)C(c2c3n(c4ccccc24)C[C@H](CO)C=C3)=C1Nc1ccccc1 [Example 4-43]
## Task // which entry has the larger pIC50 value, P or Q ? Refer to your chosen item by its label in the answer.
## Result Q

----------
Biological target: PKC β II (Homo sapiens, UniProt P05771)
Construct: purchased CALBIOCHEM
Test: PKC enzyme assay (BIOTRAK Protein kinase C enzyme assay system, 32P-ATP phosphorylation of peptide […])
Type: biochemical
Conditions: read-out: Inhibition of PKC activity IC50 PKC β II; Protein Kinase C, Human Recombinant; test substance 1 nM-10 µM; 37°C, 15 minutes
pIC50: −log10 of the molar value.
measurement-kind: pIC50

The examples below pair each entry with its known result.
compound	system-name	measurement-kind	result-number
CCNCC1Cc2c(C3=C(Nc4ccc(F)cc4)C(=O)NC3=O)c3ccccc3n2C1 (stereo not shown)	PKC β II (Homo sapiens, UniProt P05771)	pIC50	8.40
CCN(C)C[C@@H]1CCc2c(C3=C(Nc4cccc(SC)c4)C(=O)NC3=O)c3ccccc3n2C1	PKC β II (Homo sapiens, UniProt P05771)	pIC50	7.47

A = O=C1NC(=O)C(c2c3n(c4ccccc24)C[C@H](CN2CCOCC2)C3)=C1Nc1ccccc1
B = CCN(CC)C[C@@H]1CCc2c(C3=C(Nc4ccccc4)C(=O)NC3=O)c3ccccc3n2C1
## Task Hi team, can someone confirm which has the larger pIC50: A or B ? Thanks. Choose, then provide that item's label.
## Result B
(B: 8.22, A: 7.34)

----------
Molecular target: PKC β II (Homo sapiens, UniProt P05771)
Construct: purchased CALBIOCHEM
Test: PKC enzyme assay (BIOTRAK Protein kinase C enzyme assay system, 32P-ATP phosphorylation of peptide […])
Format: biochemical
Details: IC50 PKC α / IC50 PKC β II
measurement-kind: Ratio α/β

compound	result-number
O=C1NC(=O)C(c2cn(CCCN3CCC(O)CC3)c3ccccc23)=C1Nc1ccccc1 [Example 2-25]	46

P = O=C1NC(=O)C(c2cn(CCCCCN3CCC(O)CC3)c3ccccc23)=C1Nc1ccccc1 [Example 2-28]
Q = CN(C)CCN(C)CCn1cc(C2=C(Nc3ccccc3)C(=O)NC2=O)c2ccccc21 [Example 2-16]
## Task For this pair, P and Q , which shows a numerically higher Ratio α/β? # reply format: chosen label
## Result Q
(Q: 79, P: 43)

----------
Biological target: PKC β II (Homo sapiens, UniProt P05771)
Construct: purchased CALBIOCHEM
Assay: PKC enzyme assay (BIOTRAK Protein kinase C enzyme assay system, 32P-ATP phosphorylation of peptide […])
Assay type: biochemical
measurement-kind: IC50 (nM)

1 = O=C1NC(=O)C(c2cn(CCCN3CCC(N4CCCC4)CC3)c3ccccc23)=C1Nc1ccccc1
2 = O=C1NC(=O)C(c2c3n(c4ccccc24)CCC(Cn2ccnc2)C3)=C1Nc1ccccc1 (stereo not drawn)
## Task Please state the entry with greater IC50 among 1 and 2 . Label of pick, please.
## Result 2
(2: 16 nM, 1: 8 nM)

A = CCN(C)CC1CCc2c(C3=C(Nc4ccccc4)C(=O)NC3=O)c3ccccc3n2C1 (stereo not drawn)
B = O=C1NC(=O)C(c2cn(CCCN3CCCCCC3)c3ccccc23)=C1Nc1ccccc1
C = COC[C@H]1Cc2c(C3=C(Nc4ccccc4)C(=O)NC3=O)c3ccccc3n2C1
## Task # sort list by recorded IC50, greatest to least Submit the labels in the order that the ranking request calls for.
## Result C, B, A
(C: 40 nM, B: 10 nM, A: 7 nM)
